Kindly state melting point for each of the entries shown.

**Query** Recorded melting point for c1ccc(-c2ccccc2OCc2ccc(COc3ccccc3-c3ccccc3)cc2)cc1 , please?
**Result** 140 to 142 °C

**Query** Here is the next compound: c1ccc(-c2ccccc2OCc2ccc(-c3ccc(COc4ccccc4-c4ccccc4)cc3)cc2)cc1
**Result** 149 to 151 °C

**Query** Here is the next compound: CCCCCCCCCCCCCCCCCCOc1ccccc1-c1ccccc1
**Result** 42 to 45 °C

**Query** Here is the next compound: c1ccc(-c2ccccc2OCCCCOc2ccccc2-c2ccccc2)cc1 [1,4-bis([1,1′-biphenyl]-2-yloxy)butane]
**Result** 62 to 67 °C

**Query** Here is the next compound: CCCCCCCCCCCCOc1ccccc1-c1ccccc1
**Result** 27 to 29 °C
